Molecular target: T1, cynomolgus galectin-10-His, WGS isoform (cynomolgus)
T1 construct: also called cynoGal10-WGS; not shown: His tag
T1 chain: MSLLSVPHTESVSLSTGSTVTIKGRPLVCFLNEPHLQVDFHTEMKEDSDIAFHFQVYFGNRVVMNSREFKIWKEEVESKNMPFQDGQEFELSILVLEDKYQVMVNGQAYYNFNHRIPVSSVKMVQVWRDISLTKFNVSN
Assay: ELISA, coated antigen 0.2 ug/mL
Entries and their EC50
Express your answer in nM, writing the number without its unit.

Answered examples (3):
binder	EC50, nM
10B02 scFv-human Fc (Fc fusion, also called 010B02; not shown: CH2-CH3 constant domains of human IgG1 (pUPEX50 scFv-Fc fusion vector)) scFv: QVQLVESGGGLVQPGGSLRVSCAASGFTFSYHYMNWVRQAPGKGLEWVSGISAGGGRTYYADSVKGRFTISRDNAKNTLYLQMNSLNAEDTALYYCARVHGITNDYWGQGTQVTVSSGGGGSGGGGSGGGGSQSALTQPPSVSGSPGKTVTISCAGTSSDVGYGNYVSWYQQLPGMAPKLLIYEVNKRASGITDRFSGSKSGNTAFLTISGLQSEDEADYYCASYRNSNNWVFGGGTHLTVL	0.05
7B07 scFv-human Fc (Fc fusion, also called 007B07; not shown: CH2-CH3 constant domains of human IgG1 (pUPEX50 scFv-Fc fusion vector)) scFv: QVQLVESGGGLVQPGGSLRLSCAASGFTFRSYDMSWVRQAPGKGPEWVSAIKNGGGITYYADSVKGRFTISRDNAKNTLYLQMNSLKPEDTAVYYCATTHGIGTLGFGSWGQGTQVTVSSGGGGSGGGGSGGGGSSYELTQSASVSVALTQTAKITCDGNNIGSKSAQWYQQKPGQAPALVIYADEYRPEGIPERFSGSNSGNTATLIISGAQAEDEADYYCQVWDGSAAVFGRGTHLTVL	0.82
8H11 scFv-human Fc (Fc fusion, also called 008H11; not shown: CH2-CH3 constant domains of human IgG1 (pUPEX50 scFv-Fc fusion vector)) scFv: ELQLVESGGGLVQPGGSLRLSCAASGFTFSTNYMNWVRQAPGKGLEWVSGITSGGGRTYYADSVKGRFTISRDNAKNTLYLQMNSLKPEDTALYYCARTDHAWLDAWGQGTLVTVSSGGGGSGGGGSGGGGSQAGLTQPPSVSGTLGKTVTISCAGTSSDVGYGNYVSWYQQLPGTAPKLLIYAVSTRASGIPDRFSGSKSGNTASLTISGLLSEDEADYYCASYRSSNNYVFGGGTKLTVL	0.13

Here is the next item to consider.
Let me know recorded EC50 for 10D02 scFv-human Fc (Fc fusion, also called 010D02; not shown: CH2-CH3 constant domains of human IgG1 (pUPEX50 scFv-Fc fusion vector)) scFv: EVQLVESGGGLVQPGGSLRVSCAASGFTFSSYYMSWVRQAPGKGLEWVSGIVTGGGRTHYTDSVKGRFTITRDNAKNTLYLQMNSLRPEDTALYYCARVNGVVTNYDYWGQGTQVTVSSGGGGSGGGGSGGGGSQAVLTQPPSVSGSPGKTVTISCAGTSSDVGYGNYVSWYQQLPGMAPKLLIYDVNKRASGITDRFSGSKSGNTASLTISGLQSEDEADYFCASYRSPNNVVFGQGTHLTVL , thanks.
1.12

Provenance of the data: patent US20190367619A1
